# Average Luminescence Concentration (CPS) annotations
biological target: Biotin-labeled amyloid-β (Homo sapiens, UniProt P05067); experiment: ELISA assay, binding of biotin-labeled amyloid-β to plate-coated test compounds; conditions: β-Amyloid Dilution 20 (μL/well); compound coated at 1 μM
Sequence (P05067 672-711 limits assumed): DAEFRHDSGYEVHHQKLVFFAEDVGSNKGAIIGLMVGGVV
Give the number; CPS is assumed, so skip it.

Solved cases (4 shown):
{"Compound": "NCCCCCNC(=O)c1ccccc1Nc1cccc(C(F)(F)F)c1", "Readout value": 1461}
{"Compound": "NCCNC(=O)c1ccccc1Nc1cccc(C(F)(F)F)c1", "Readout value": 2072}
{"Compound": "NCCCNC(=O)c1ccccc1Nc1cccc(C(F)(F)F)c1", "Readout value": 2184}
{"Compound": "NCCCCNC(=O)c1ccccc1Nc1cccc(C(F)(F)F)c1", "Readout value": 161}

Now consider the entry below.
Enquiry: Given the compound Cc1ccc2c(c1)sc(-c1ccc(N(C)C)cc1)[n+]2C.[Cl-] [Thioflavin-T, reference compound] , what is its reported Average Luminescence Concentration (CPS)?
Return: 86

---

# Average Luminescence Concentration (CPS) annotations
biological target: FKBP12 (Homo sapiens, UniProt P62942); construct: His (6xHis); made in house; host or cells: E. coli BL21-AI; experiment: ELISA screening of candidates for the chaperone binding portion (FKBP12); settings: Concentration 1 (μM/well) biotin-labeled FKBP12; compound coated at 1 μM
Sequence (P62942 whole entry): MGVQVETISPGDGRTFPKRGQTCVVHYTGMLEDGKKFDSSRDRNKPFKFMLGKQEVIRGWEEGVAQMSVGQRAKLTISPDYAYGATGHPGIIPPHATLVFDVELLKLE

{"Compound": "CCC(C)(C)C(=O)C(=O)N1CCCC[C@H]1C(=O)O[C@@H](CCc1ccc(OC)c(OC)c1)c1ccc(OCC(=O)O)cc1 [9-RR]", "Average Luminescence Concentration (CPS)": "660 CPS"}

Enquiry: Given the compound CCC(C)(C)C(=O)C(=O)N1CCCC[C@H]1C(=O)O[C@@H](CCc1ccc(OC)c(OC)c1)c1ccc(OCC(=O)O)cc1 [9-SS] , what is its reported Average Luminescence Concentration (CPS)?
Return: 297 CPS

Enquiry: Given the compound CCC(C)(C)C(=O)C(=O)N1CCCC[C@H]1C(=O)O[C@@H](CCc1ccc(OC)c(OC)c1)c1ccc(OCC(=O)O)cc1 [9-SR] , what is its reported Average Luminescence Concentration (CPS)?
Return: 762 CPS

Enquiry: Given the compound CCC(C)(C)C(=O)C(=O)N1CCCC[C@H]1C(=O)O[C@H](CCc1ccc(OC)c(OC)c1)c1ccc(OCC(=O)O)cc1 , what is its reported Average Luminescence Concentration (CPS)?
Return: 1399 CPS

---

molecular target: FKBP12 (Homo sapiens); construct: His (6xHis); made in house; host or cells: E. coli BL21-AI; assay: ELISA screening of candidates for the chaperone binding portion (FKBP12); conditions: Concentration 30 (μM/well) biotin-labeled FKBP12; compound coated at 1 μM
Outcome measure: Average Luminescence Concentration (CPS)
Give the number; CPS is assumed, so skip it.

{"Compound": "CCC(C)(C)C(=O)C(=O)N1CCCC[C@H]1C(=O)O[C@H](CCc1ccc(OC)c(OC)c1)c1ccc(OCC(=O)O)cc1", "Assay target": "FKBP12 (Homo sapiens)", "Readout value": 4244}
{"Compound": "CCC(C)(C)C(=O)C(=O)N1CCCC[C@H]1C(=O)O[C@@H](CCc1ccc(OC)c(OC)c1)c1ccc(OCC(=O)O)cc1 [9-RR]", "Assay target": "FKBP12 (Homo sapiens)", "Readout value": 1297}
{"Compound": "CCC(C)(C)C(=O)C(=O)N1CCCC[C@H]1C(=O)O[C@@H](CCc1ccc(OC)c(OC)c1)c1ccc(OCC(=O)O)cc1 [9-SS]", "Assay target": "FKBP12 (Homo sapiens)", "Readout value": 1366}

Now consider the entry below.
Enquiry: Given the compound CCC(C)(C)C(=O)C(=O)N1CCCC[C@H]1C(=O)O[C@@H](CCc1ccc(OC)c(OC)c1)c1ccc(OCC(=O)O)cc1 [9-SR] , what is its reported Average Luminescence Concentration (CPS)?
Return: 1478
